- target-desc: hENPP2 (UniProtKB/SwissProt Sequence ref Q13822) (Homo sapiens (Human), UniProt Q13822)
- test-name: LPC hENPP2 assay (choline release, LPC as substrate)
- Assay type: biochemical
pIC50: −log10 of the molar value.
measured-quantity: pIC50

Previously resolved entries follow.
# molecule, result
measured = [
    ("CCc1nc2ccc(N3CC(NC(=O)OC(C)(C)C)C3)nn2c1N(C)c1nc(-c2ccc(F)cc2)cs1", "< 6.00"),
    ("CCc1nc2ccc(N3CCC(N4CCC(N(C)C(C)=O)CC4)C3)nn2c1N(C)c1nc(-c2ccc(F)cc2)c(C#N)s1 (stereo not shown)", "7.00 to 11.00"),
    ("CCc1nc2ccc(N3CCN(CC(=O)N(C)C)CC3)nn2c1N(C)c1nc(-c2ccc(F)cc2)c(C(=O)C(F)(F)F)s1", "7.00 to 11.00"),
    ("CCc1nc2ccc(N3CC4CN(S(C)(=O)=O)CC4C3)nn2c1N(C)c1nc(-c2ccc(F)cc2)cs1 (stereo not shown)", "< 6.00"),
    ("CCc1nc2ccc(N3CCC(=O)C3)nn2c1N(C)c1nc(-c2ccc(F)cc2)c(Cl)s1", "< 6.00"),
    ("CCc1nc2ccc(N3CCN[C@H](CO)C3)nn2c1N(C)c1nc(-c2ccc(F)cc2)cs1", "< 6.00"),
]

In the following, a different molecule is considered.
Fill in: pIC50 of CCc1nc2ccc(N3CCN(S(C)(=O)=O)[C@@H](CO)C3)nn2c1N(C)c1nc(-c2ccc(F)cc2)cs1 is ___
< 6.00

---

Let's look at some compounds and their measured IC50.
- Test system: LPA 18:2
- test-name: Rat whole blood (plasma) LPA assay
- Format: biochemical

Previously resolved entries follow.
# compound, measured-quantity, result
data = [
    ("CCc1nc2ccc(N3CCN(CC4CNC(=O)O4)CC3)nn2c1N(C)c1nc(-c2ccc(F)cc2)cs1 (stereo not shown)", "IC50", "100 to 500 nM"),
    ("CCc1nc2ccc(N3CCN(S(=O)(=O)CCCN(C)C)[C@H](CO)C3)nn2c1N(C)c1nc(-c2ccc(F)cc2)cs1", "IC50", "0.01 to 100 nM"),
    ("CCc1nc2cnc(C3CCN(CC(=O)N4CC[C@@H](O)C4)CC3)cn2c1N(C)c1nc(-c2ccc(F)cc2)c(C#N)s1", "IC50", "0.01 to 100 nM"),
]

In the following, a different compound is considered.
Lab note: need IC50 for CCc1nc2ccc(C3CCN(CC(=O)N4CC(O)C4)CC3)nn2c1N(C)c1cccc(-c2ccc(F)cc2C#N)n1 on LPA 18:2, anyone have it?
100 to 500 nM

---

- target-desc: hENPP2 (UniProtKB/SwissProt Sequence ref Q13822) (Homo sapiens (Human), UniProt Q13822)
- test-name: LPC hENPP2 assay (choline release, LPC as substrate)
- Format: biochemical
Let's look at some molecules and their measured IC50.

Fill in: IC50 of CCc1nc2cnc(N3CCN(CC(=O)N4CCC4)CC3)cn2c1N(C)c1nc(-c2ccc(F)cc2)c(C#N)s1 is ___
100 to 500 nM

Fill in: IC50 of CCc1nc2ccc(N3CCN(CC(=O)NC(C)C)CC3)nn2c1N(C)c1nc(-c2ccc(F)cc2)cs1 is ___
> 1000 nM
